FYI, the data here is from ChEMBL document CHEMBL1142754.

experiment: Inhibitory concentration against lipoprotein-associated phospholipase A2 (Lp-PLA2) was determined in Pseudomonas fluorescens (DMS 115797)
Value type: IC50 (µM)
Quick note: give the figure in µM, leave out the unit.

>>> assay_result("CCCCC/C=C\\C/C=C\\CCCCCCCC(=O)OC[C@H](O)CO")
52

Attention now shifts to the item below.
Challenge: Read off the recorded IC50 for CCCCC/C=C\C/C=C\CCCCCCCC(=O)OC[C@@H](O)CO [GLYCERYL MONOLINOLEATE]
Response given: 4.5
